assay: BSK_CASM3C_Proliferation: Cell Proliferation Assessment in the BioMAP Diversity Plus: CASM3C Assay (AID 2283047); details: primary human coronary artery smooth muscle cells;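 further: sulforhodamine B total protein stain as relative cell number at 560 nm; sub-confluent cells exposed 48 h before staining; fitted both ways against DMSO so gain or loss of cell number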
Activity calls are given as the source filed them. How the source made its calls: active means hit-call score of the fitted dose curve at least 0.9, where 1 is the maximum; inactive means score below 0.9.
Outcomes you can answer with include only these: yes (1) = active, no (0) = inactive

Solved entries:
>  <compound>
CC(C)C1OCCN1CCOC(=O)NCCCCCCNC(=O)OCCN1CCOC1C(C)C (stereo not drawn)

>  <group>
no (0)

$$$$
>  <compound>
COc1ccc(C(=O)c2ccccc2O)c(O)c1

>  <group>
no (0)

$$$$
>  <compound>
CCCCCCCCCCC1CO1 (stereo not drawn)

>  <group>
no (0)

$$$$
>  <compound>
CCCCCCCCCC/C=C/C1CC(=O)OC1=O (stereo not drawn)

>  <group>
no (0)

$$$$
>  <compound>
CC[N+](CC)(CC(=O)Nc1c(C)cccc1C)Cc1ccccc1

>  <group>
no (0)

$$$$
>  <compound>
COc1ccccc1Oc1c(NS(=O)(=O)c2ccc(C(C)(C)C)cc2)nc(-c2ncccn2)nc1OCCO

>  <group>
no (0)

$$$$

Query: Assay result, entry O=C(C(=O)c1ccccc1)c1ccccc1 — outcome?
Reply: no (0)

Query: Assay result, entry CN(C)c1ccc(C(c2ccccc2)c2ccc(N(C)C)cc2)cc1 — outcome?
Reply: yes (1)
